target.or.test.system: ALK2/ACVR1 (Homo sapiens)
Sequence (Q04771 21-509): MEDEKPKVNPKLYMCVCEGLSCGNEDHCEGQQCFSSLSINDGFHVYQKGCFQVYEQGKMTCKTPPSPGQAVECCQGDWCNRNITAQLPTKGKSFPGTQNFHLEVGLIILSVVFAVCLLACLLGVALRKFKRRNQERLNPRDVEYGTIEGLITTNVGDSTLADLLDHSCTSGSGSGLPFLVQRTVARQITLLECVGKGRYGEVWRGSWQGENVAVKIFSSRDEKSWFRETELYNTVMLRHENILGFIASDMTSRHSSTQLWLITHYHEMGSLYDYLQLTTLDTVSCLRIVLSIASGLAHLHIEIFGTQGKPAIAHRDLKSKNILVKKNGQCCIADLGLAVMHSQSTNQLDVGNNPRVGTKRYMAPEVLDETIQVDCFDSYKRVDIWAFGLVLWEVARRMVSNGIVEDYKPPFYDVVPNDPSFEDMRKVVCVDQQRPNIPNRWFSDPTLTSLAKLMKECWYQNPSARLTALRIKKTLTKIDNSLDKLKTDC
test.description: Kinase assay (33P-ATP filter-binding), ALK2
Format: biochemical
cond: 20 mM; read-out: Kinase Selectivity ALK2/ACVR1 (20 mM)
property.measured: log10 IC50 (log10 of the value in nM)
Use the decimal logarithm of IC50 (nM).

molecule	log10 IC50
c1cnc2c(-c3cnc4cc(-c5ccc(C6CNCCN6)cc5)ccn34)ccnc2c1 (centres unmarked)	0.79
Cc1cc(-c2cnc3cc(-c4ccc(C5C[C@@H](C)N[C@@H](C)C5)cc4)ccn23)c2cc(F)cc(F)c2n1 (some centres unmarked)	1.73
Cc1cc(-c2cnc3cc(-c4ccc(N5CCC6(CCCCN6)CC5)cc4)ccn23)c2cc(F)cc(F)c2n1	1.74
c1cc(-c2cnc3cc(-c4ccc(C5CNCCN5)cc4)ccn23)ccn1 (centres unmarked)	1.84
NS(=O)(=O)c1ccc(-c2cnc3cc(-c4ccc(C5CNCCN5)cc4)ccn23)c2ccccc12 (centres unmarked)	1.16

Lab note: next molecule to report on.
# input Which log10 IC50 value is on record for Cc1cc(-c2cnc3cc(-c4ccc(N5CCN(C)CC5)cc4)ccn23)c2cccnc2n1 ?
# output 2.06

Values were extracted from patent US10745400B2.
